# Tgt: receptor binding domain (RBD) of the wildtype (WT) SARS-CoV-2 spike protein (SARS-CoV-2, wildtype (sequence as in …))
Measurement Name: binding result

[
  {
    "Binder": "mRBD10 (antibody, V domains shown) VH: QVQLKQSGAELVRPGASVKLSCKASGYTFTDYYINWVKQRPGQGLEWIARIYPGSGNTYYNEKFKGKATLTAEKSSSTAYMQLSSLTSEDSAVYFCARDYGSSYVDYFDYWGQGTTLTVSS VL: DIQMTQTTSSLSASLGDRVTISCRASQDISNYLNWYQQKPDGTVKLLIYYTSRLHSGVPSRFSGSGSGTDYSLTISNLEQEDIATYFCQQGNTLPLTFGAGTKLELK",
    "Measurement Name": "binding result",
    "Endpoint Result": "binds"
  },
  {
    "Binder": "mRBD21 (antibody, V domains shown) VH: QIQLVQSGPELKKPGETVKISCKASGYTFTKYPMHWVKQAPGKGFKWMGMIYTDTGEPTYAEEFKGRCAFSLETSASTAYLQINNLKNEDTATYFCVRWGGSYALDYWGQGTSVTVSS VL: DIVLTQSPASLAVSLGQRATISCRASESVDSYGNSFMHWYQQKPGQPPKLLIYRASNLESGIPARFSGSGSRTDFTLTINPVEADDVATYYCQQSNEDPLTFGAGTKLELK",
    "Measurement Name": "binding result",
    "Endpoint Result": "binds"
  },
  {
    "Binder": "mRBD23 (antibody, V domains shown) VH: QVQLQQPGAELVRPGSSVKLSCKASGYTFTSYWMHWVKQRPIQGLEWIGNIDPSDSETHYNQKFKDKATLTVDKSSSTAYMQLSSLTSEDSAVYYCTRPGSLRSRGWYFDVWGTGTTVTVSS VL: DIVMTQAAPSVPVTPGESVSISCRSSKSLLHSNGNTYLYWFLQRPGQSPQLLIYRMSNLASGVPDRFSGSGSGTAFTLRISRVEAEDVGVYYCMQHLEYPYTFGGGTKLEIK",
    "Measurement Name": "binding result",
    "Endpoint Result": "binds"
  }
]

Origin of the recorded values: paper doi:10.1101/2023.01.10.523494
